target: specific receptors on human platelet membranes (PAF receptors) (Homo sapiens, UniProt P25105); construct: Human platelet membranes were prepared from platelet concentrates obtained from the American Red Cross Blood Services; assay: [3H]PAF binding inhibition on human platelet membranes (Table 1, PAF); conditions: [3H]PAF 0.3 nM, pH 7.0, 4 h, 0° C
Sequence (P25105 whole entry): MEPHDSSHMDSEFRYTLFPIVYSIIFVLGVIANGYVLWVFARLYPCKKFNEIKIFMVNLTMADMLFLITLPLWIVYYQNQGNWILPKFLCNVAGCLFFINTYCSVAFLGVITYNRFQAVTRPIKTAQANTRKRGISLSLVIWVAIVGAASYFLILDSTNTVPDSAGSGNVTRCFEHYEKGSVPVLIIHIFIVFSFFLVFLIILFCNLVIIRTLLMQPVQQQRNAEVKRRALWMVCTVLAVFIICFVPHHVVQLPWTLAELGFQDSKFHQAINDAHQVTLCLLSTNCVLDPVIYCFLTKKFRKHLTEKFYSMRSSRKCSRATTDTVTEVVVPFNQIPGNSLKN
pIC50: −log10 of the molar value.
measured metric: pIC50

In the examples that follow, each entry is paired with its recorded pIC50.
compound	measured metric	quantitative result
C=CCOc1c(NC(=O)N(O)C(C)(C)C)cc([C@H]2SC[C@H](c3cc(OC)c(OC)c(OC)c3)S2)cc1OC (relative stereo)	pIC50	6.27
COc1cc([C@H]2SC[C@H](c3cc(OC)c(OC)c(OC)c3)S2)cc(NC(=O)N(O)C(C)(C)C)c1OC (relative stereo)	pIC50	6.10

[1] CCCCN(O)C(=O)Nc1cc(C2SCC(c3cc(OC)c(OC)c(OC)c3)S2)cc(OC)c1OC (centres unmarked)
[2] C=CCOc1c(NC(=O)N(C)O)cc([C@H]2SC[C@H](c3cc(OC)c(OC)c(OC)c3)S2)cc1OC (relative stereo)
[3] COc1cc([C@H]2SC[C@H](c3cc(OC)c(OC)c(OC)c3)S2)cc(NC(=O)N(C)O)c1OC (relative stereo)
Sort ascending by pIC50. Return the labels ranked in the requested order, please. 2, 3, 1
(2: 6.25, 3: 6.59, 1: 7.17)

---

molecular target: 5-LO (Rattus norvegicus, UniProt P12527)
measured metric: IC50 (nM)

[P] COc1cc([C@H]2SC[C@H](c3cc(OC)c(OC)c(OC)c3)S2)cc(NC(=O)N(C)O)c1OCCSc1ccc(C#N)cc1 (relative stereo)
[Q] COc1cc([C@H]2SC[C@H](c3cc(OC)c(OC)c(OC)c3)S2)cc(NC(=S)N(C)O)c1OC (relative stereo)
[R] C=CCOc1c(NC(=O)N(C)O)cc([C@H]2SC[C@H](c3cc(OC)c(OC)c(OC)c3)S2)cc1OC (relative stereo)
[S] C=CCOc1c(NC(=O)N(O)C(C)(C)C)cc([C@H]2SC[C@H](c3cc(OC)c(OC)c(OC)c3)S2)cc1OC (relative stereo)
Reorder the list: decreasing IC50. Answer format: list of labels, ordered as asked. S, Q, R, P

---

Biological target: RBL 5-LO (Rattus norvegicus, UniProt P12527)
Construct: cytosol 5-lipoxygenase of rat basophilic leukemia cells (RBL); endogenous in cells
Sequence (P12527 1-673): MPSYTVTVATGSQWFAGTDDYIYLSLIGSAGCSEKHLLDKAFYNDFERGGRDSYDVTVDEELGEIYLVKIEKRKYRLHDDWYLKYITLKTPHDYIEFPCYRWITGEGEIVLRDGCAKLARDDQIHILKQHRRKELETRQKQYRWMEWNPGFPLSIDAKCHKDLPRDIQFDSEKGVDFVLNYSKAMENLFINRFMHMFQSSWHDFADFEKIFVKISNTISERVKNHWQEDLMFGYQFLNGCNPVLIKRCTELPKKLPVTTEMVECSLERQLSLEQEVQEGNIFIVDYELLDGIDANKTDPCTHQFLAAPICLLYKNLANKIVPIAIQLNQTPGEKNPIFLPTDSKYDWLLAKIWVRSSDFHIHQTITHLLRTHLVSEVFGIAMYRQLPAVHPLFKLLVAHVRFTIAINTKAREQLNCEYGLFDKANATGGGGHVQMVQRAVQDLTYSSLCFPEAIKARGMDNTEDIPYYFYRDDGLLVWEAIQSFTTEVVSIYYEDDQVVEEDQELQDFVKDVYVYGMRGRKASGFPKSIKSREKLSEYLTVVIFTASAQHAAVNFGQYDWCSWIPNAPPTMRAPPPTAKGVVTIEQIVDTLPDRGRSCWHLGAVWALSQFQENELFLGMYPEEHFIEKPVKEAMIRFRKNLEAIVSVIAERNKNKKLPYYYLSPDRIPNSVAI
Assay: RBL 5-LO inhibition (Table 2)
Details: unit inferred
measured metric: IC50 (nM)

[1] C=CCOc1c(NC(=O)N(O)C(C)(C)C)cc([C@@H]2O[C@@H](c3cc(OC)c(OC)c(OC)c3)CS2)cc1OC (relative stereo)
[2] COc1cc(C2SCC(c3cc(OC)c(OC)c(OC)c3)S2)cc(CN(O)C(N)=O)c1OC (stereo not shown)
[3] C=CCOc1c(NC(=O)N(O)C(C)(C)C)cc([C@H]2O[C@@H](c3cc(OC)c(OC)c(OC)c3)CS2)cc1OC (relative stereo)
[4] COc1cc(C2SCC(c3cc(OC)c(OC)c(OC)c3)S2)cc(CN(O)C(C)=O)c1OC (stereo not shown)
// rank above by IC50: first = highest number API: response body holds the labels in the requested order. 2, 4, 1, 3
(2: 1440 nM, 4: 850 nM, 1: 410 nM, 3: 250 nM)
